Where these numbers come from: ChEMBL document CHEMBL1201862

This listing pairs compounds with measured GI50.
# Tested on: U-251
# testProtocol: NCI tumour cell line growth inhibition, 48 h
Calls of active or inactive are those of the source. No stated cut-off is given here; in the data, active = GI50 up to about 1.1 µM and inactive = higher. Where a SMILES comes first, the peptide text is derived from it. [ ]: non-standard residue; d: D form. The star is where a group is joined. Iva = CC[C](C)(N)C(=O)O; Boc = CC(C)(C)OC(=O)*; X54 = C1CCC(=NO*)C1
quantityName: GI50

1. COc1ccc(C2Oc3c(cccc3OC)C=C2[N+](=O)[O-])cc1 (stereo not drawn)	1.86 µM (inactive)
2. CCC(C)(NC(=O)C(C)NC(=O)OC(C)(C)C)C(=O)NC(C)C(=O)NC(C)(CC)C(=O)ON=C1CCCC1 (stereo not drawn) (Boc-A[Iva]A[Iva]-X54; configuration not given here)	> 100 µM (inactive)
3. CC(C)CC(=O)CC(O)C(Cl)(Cl)Cl (stereo not drawn)	> 100 µM (inactive)

* * *

# System: OVCAR-5
# testProtocol: NCI tumour cell line growth inhibition, 48 h
Calls of active or inactive are those of the source. No stated cut-off is given here; in the data, active = GI50 up to about 1.1 µM and inactive = higher. Where a SMILES comes first, the peptide text is derived from it. The star is where a group is joined. Fmoc = O=C(OCC1c2ccccc2-c2ccccc21)*; Boc = CC(C)(C)OC(=O)*
Items are presented alongside their recorded GI50.
quantityName: GI50

1. CCOC(=O)N/N=C(\CC)OCC	> 100 µM (inactive)
2. COc1ccc2c(c1)[n+]([O-])c(C(=O)C/C(=N/OCCCc1ccccc1)C(=O)NC13CC4CC(CC(C4)C1)C3)c(C)[n+]2[O-]	> 100 µM (inactive)
3. CC(C)(C)OC(=O)NCCCCC(NC(=O)C(Cc1c[nH]c2ccccc12)NC(=O)OCC1c2ccccc2-c2ccccc21)C(=O)O (stereo unspecified) (Fmoc-Trp-Lys(Boc)-OH; configuration not given here)	> 100 µM (inactive)
4. c1ccc([B-]2(c3ccccc3)NCCCO2)cc1	> 100 µM (inactive)
5. CC(C)(C)OC(=O)N1C[C@H](CC(=O)OCc2ccccc2)C[C@H]1C(=O)OCC(Cl)(Cl)Cl	20.2 µM (inactive)
6. COc1cc(/C=C/C(=N\NC(=O)c2ccccc2)c2sc(Nc3ccc(Cl)c(Cl)c3)nc2C)ccc1O	25.6 µM (inactive)
7. c1ccc2[nH]c(C3CCCCO3)nc2c1 (stereo unspecified)	> 100 µM (inactive)
8. Nc1ncnc2c1nnn2C1CCC(CP(=O)(O)O)C1 (stereo unspecified)	> 100 µM (inactive)
9. O=c1nc(N2CCNCC2)oc2cc(Cl)oc(=O)c12	15.5 µM (inactive)
10. C#CCCOC(=O)c1ccccc1OC(C)=O	> 100 µM (inactive)
11. O=c1oc2ccccc2c(-c2ccc(O)cc2)c1Oc1ccc(Cl)cc1	31.8 µM (inactive)

* * *

# System: TK-10
# testProtocol: NCI tumour cell line growth inhibition, 48 h
Activity calls are given as the source filed them. Cut-off read from the data, not from the text of the source: active = GI50 up to about 1.1 µM and inactive = higher.
Outcomes: active, inactive

1. COc1cc(-c2ccccc2N)c2cccnc2c1OC	inactive
2. Cc1cc(=O)oc2cc3c(cc12)Oc1ccccc1O3	inactive
3. O=C1NC(=S)NC1C(Cc1ccccc1)c1ccco1 (centres undefined)	inactive
4. Clc1ccc2c(c1)C1C(CO2)C(c2ccccc2)=NN1c1ccccc1 (centres undefined)	inactive
5. CN(C)CCNC(=O)c1ccc(Cl)c2cc3ccccc3nc12	active
6. CCOC(=O)/C(O)=C(/C(=O)OC)c1ccc(Cl)cc1	inactive
7. Cc1ccccc1OC(C)C(=O)NN1C(=O)CC(=O)NC1=S (centres undefined)	inactive
8. O=C(Nc1ccc(Cl)cc1)C1C(=O)C(=O)N(c2ccc(Cl)cc2)C1=O (centres undefined)	inactive
9. CSc1nc(C)cc(=O)n1C1OC(COC(C)=O)C(OC(C)=O)C(OC(C)=O)C1OC(C)=O (centres undefined)	inactive

* * *

# Tested on: OVCAR-4
# testProtocol: NCI tumour cell line growth inhibition, 48 h
Activity calls are given as the source filed them. Cut-off read from the data, not from the text of the source: active = GI50 up to about 1.1 µM and inactive = higher.
GI50 values, listed per item
quantityName: GI50

1) CSc1nc2c(c(O)c(C)c(=O)n2C2OCC(OC(C)=O)C(OC(C)=O)C2OC(C)=O)c(=O)n1C (stereo not given)	> 100 µM (inactive)
2) NN/C(Cc1ccccc1)=N/NC(N)=S	> 100 µM (inactive)
3) Cc1ccc(Cc2c(=O)[nH]nc3ccccc23)cc1	> 100 µM (inactive)
4) CC12CCCC(C(=O)O)(C1)[C@H](C(C)(C)C(=O)O)CC2 (stereo not given in full)	> 100 µM (inactive)
5) CN1/C(=N\c2ccccc2)S/C1=N/c1ccccc1	59.7 µM (inactive)

* * *

# Test system: K562
# testProtocol: NCI tumour cell line growth inhibition, 48 h
Activity calls are given as the source filed them. Rule as the data show it: active = GI50 up to about 1.1 µM and inactive = higher.
Labels: Yes (active), No (inactive)

1. CCOP(=O)(OCC)C(Nc1ccc(F)cc1)c1cccc([N+](=O)[O-])c1 (configuration not stated)	No
2. CN(C)CCNC(=O)c1ccc(Cl)c2cc3ccccc3nc12	Yes
3. O=C1CCC2(O)c3ccccc3C2Cc2ccccc21 (configuration not stated)	No
4. COc1ncnc2c(Cl)c(C(O)c3ccccc3)c(Cl)cc12 (configuration not stated)	No
5. CC[C@]12C=CCN3CC[C@@]4(c5cc(Br)c(OC)cc5N(C)[C@H]4[C@@](O)(C(=O)N[C@@H](Cc4ccc(O)cc4)C(=O)OC)[C@@H]1O)[C@@H]32	No
6. O=C1CCC(=O)N1Cc1ccccc1/N=[N+](\[O-])c1ccccc1CN1C(=O)CCC1=O	No
7. CCc1ccc(NCc2cc(OC)c(OC)c(OC)c2)cc1	Yes

* * *

Measured GI50 of individual entries
# Tested on: SF-268
# testProtocol: NCI tumour cell line growth inhibition, 48 h
Calls of active or inactive are those of the source. Cut-off read from the data, not from the text of the source: active = GI50 up to about 1.1 µM and inactive = higher.
quantityName: GI50

1. Cc1ccc(OCCn2cc(Nc3ccccc3)c(=O)[nH]c2=O)cc1	> 100 µM (inactive)
2. O=C(CC1C(=O)c2ccccc2C1=C1C(=O)c2ccccc2C1=O)c1ccccc1 (stereo unspecified)	> 100 µM (inactive)
3. Cc1cc2occ(C)c(=O)c2c2c1OC(C)(C)S2	> 100 µM (inactive)
4. CN(C)CCOc1ccc([N+](=O)[O-])c2cccnc12	> 100 µM (inactive)
5. COc1ccc(OC)c(/C=C/C(=O)C(C)(C)C)c1	> 10 µM (inactive)
6. CNC(=O)CCC(NC(C)=O)C(=O)NC(Cc1ccc(NC(=O)CCCCC(C)=O)cc1)C(=O)NC(CCC(=O)NC)C(=O)NC (stereo unspecified)	> 100 µM (inactive)
7. O=C(CN1CCOCC1)c1ccc2c(c1)oc(=O)n2CCN1CCCCC1	48.3 µM (inactive)
8. Cc1n[nH]c(=O)n1/N=C/c1ccc([N+](=O)[O-])o1	17.4 µM (inactive)
9. NC(Cc1ccccc1CP(=O)(O)O)C(=O)O (stereo unspecified)	> 100 µM (inactive)
10. Cc1cc(C)c(C[C@H]2COC(=O)[C@]2(O)Cc2c(C)cc(C)cc2C)c(C)c1	14.9 µM (inactive)
11. Nc1nccc(NCC2(CO)CC(OCc3ccccc3)C2)n1 (stereo unspecified)	> 10 µM (inactive)
12. O=C(c1cccs1)N(C(=S)OCc1ccccn1)c1ccccc1	> 100 µM (inactive)
13. COc1ccc(N2C(=O)C3c4[nH]c5c(C)cccc5c4C4CCC(c5ccccc5)CC4C3C2=O)cc1 (stereo unspecified)	6.65 µM (inactive)
14. Nc1ccc(CCN2CCN(c3cccc(C(F)(F)F)c3)CC2)cc1	> 100 µM (inactive)
15. Cc1cccc2c1Oc1cc(Cl)ccc1C2NC(=O)CCN1CCCCC1 (stereo unspecified)	26.2 µM (inactive)
16. CCOC(=O)c1ccc(N2C(=O)/C(=C/c3ccc(N(CCC#N)CCC#N)cc3)N=C2c2cc([N+](=O)[O-])ccc2Cl)cc1	> 100 µM (inactive)

* * *

# key: entry, value: GI50
# Test system: OVCAR-3
# testProtocol: NCI tumour cell line growth inhibition, 48 h
Active and inactive are the calls of the source. No stated cut-off is given here; in the data, active = GI50 up to about 1.1 µM and inactive = higher.
quantityName: GI50

1. CCCCc1ccc(N2C(=O)c3cc([N+](=O)[O-])cnc3S2(=O)=O)cc1	> 100 µM (inactive)
2. CC1=NNC(=O)C1C1CC(c2c[nH]c3ccccc23)=NN=C1Cl (stereo not drawn)	62.1 µM (inactive)
3. COc1ccc2c(c1)[n+]([O-])c(C(=O)C/C(=N/OCCCc1ccccc1)C(=O)NC13CC4CC(CC(C4)C1)C3)c(C)[n+]2[O-]	> 100 µM (inactive)

* * *

# System: SF-295
# testProtocol: NCI tumour cell line growth inhibition, 48 h
Activity calls are given as the source filed them. No stated cut-off is given here; in the data, active = GI50 up to about 1.1 µM and inactive = higher.
Classes used: active, inactive

1. CN(C)CCNC(=O)c1ccc(Cl)c2cc3ccccc3nc12	active
2. Cc1n(-c2ccccc2)c2c([n+]1Cc1ccc([N+](=O)[O-])cc1)C(=O)c1ccccc1C2=O	inactive
3. NC(Cc1ccccc1CP(=O)(O)O)C(=O)O (centres undefined)	inactive
4. COc1cc2oc(-c3ccc(O)cc3)cc(=O)c2c(OC)c1OC	inactive
5. O=C(O)c1nc2ccc(C(F)(F)F)cc2nc1Nc1ccc(Cl)c(Cl)c1	inactive
6. Cc1ccc(OCCn2cc(Nc3ccccc3)c(=O)[nH]c2=O)cc1	inactive
7. COc1ccc(/C=C2\CCC(C)C3=C(c4ccc(OC)c(OC)c4)C(C#N)=C(N)OC32)cc1OC (centres undefined)	inactive
8. CCOC(=O)N/N=C(\CC)OCC	inactive
9. NC(=O)c1c2c(n3ccccc13)C(=O)c1ccccc1C2=O	inactive
10. O=C1C(Cl)N(c2ccc(Cl)cc2)C1c1c[nH]c2ccccc12 (centres undefined)	inactive
11. O=C(O)c1ccccc1-c1ccccc1C(=O)c1ccccc1	inactive
12. Cc1cccc2c1Oc1cc(Cl)ccc1C2NC(=O)CCN1CCCCC1 (centres undefined)	inactive
13. CC1=NN(C(=O)c2ccc(C)cc2)C(=O)C1/N=N/c1ccccc1C(=O)O (centres undefined)	inactive
14. COC(=O)C1CCC(C)CC1=O (centres undefined)	inactive
15. COc1ccc(Nc2c(C#N)c3n(c4ccccc24)c2ccccc2[n+]3C)cc1OC	inactive
16. Cc1nnc(N/N=C(/C(=O)C(C#N)c2ccc(Cl)cc2)C(C#N)c2ccc(Cl)cc2)n1N (centres undefined)	inactive
17. O=C(O)C1CC2CC(=O)C1C2 (centres undefined)	inactive
18. C/C(CN1C(=O)c2ccccc2C1=O)=N\NS(=O)(=O)c1ccccc1	inactive
19. COc1c2ccoc2cc2oc(=O)ccc12	inactive
